# experimental_system: FER (human)
# assay_overview: radiometric filter-binding kinase assay, Kinase HotSpot
# condition_details: compound 0.5 µM; ATP 10 µM
Mark Y for reported residual activity of 90% or greater; mark N for anything smaller.

Worked cases, answers included:
{"columns": ["molecular_string", "assigned_category"],
 "data": [
  ["O=S(=O)(NCCNC/C=C/c1ccc(Br)cc1)c1cccc2cnccc12", "Y"],
  ["N/C(=N\\N=C/c1ccc(-c2cccc([N+](=O)[O-])c2)o1)N[N+](=O)[O-]", "Y"],
  ["Cn1cc(/C=C2\\C(=O)Nc3ccc(S(N)(=O)=O)cc32)c2ccccc21", "N"],
  ["COc1cccc(-c2cc(=O)c3ccccc3o2)c1N", "Y"],
  ["Cc1cc(Nc2nc(-c3ccccc3)nc3ccccc23)n[nH]1", "N"]
]}

Hi, just wondering whether COc1cc2c(Nc3ccc(Br)cc3F)ncnc2cc1OCC1CCN(C)CC1 shows residual activity of 90% or higher.
Y

# iterate: CCc1nc(-c2ccc(OC)cc2)[nH]c1-c1ccncc1
Y

# iterate: O=c1c(-c2ccc(F)cc2)c(-c2ccncc2)[nH]n1-c1ccc(Cl)cc1
Y

# iterate: COc1cc2ncnc(Nc3ccc(O)c(Br)c3)c2cc1OC
N

----------
# experimental_system: UniProt Q13177
# Sequence (Q13177 whole entry, looked up): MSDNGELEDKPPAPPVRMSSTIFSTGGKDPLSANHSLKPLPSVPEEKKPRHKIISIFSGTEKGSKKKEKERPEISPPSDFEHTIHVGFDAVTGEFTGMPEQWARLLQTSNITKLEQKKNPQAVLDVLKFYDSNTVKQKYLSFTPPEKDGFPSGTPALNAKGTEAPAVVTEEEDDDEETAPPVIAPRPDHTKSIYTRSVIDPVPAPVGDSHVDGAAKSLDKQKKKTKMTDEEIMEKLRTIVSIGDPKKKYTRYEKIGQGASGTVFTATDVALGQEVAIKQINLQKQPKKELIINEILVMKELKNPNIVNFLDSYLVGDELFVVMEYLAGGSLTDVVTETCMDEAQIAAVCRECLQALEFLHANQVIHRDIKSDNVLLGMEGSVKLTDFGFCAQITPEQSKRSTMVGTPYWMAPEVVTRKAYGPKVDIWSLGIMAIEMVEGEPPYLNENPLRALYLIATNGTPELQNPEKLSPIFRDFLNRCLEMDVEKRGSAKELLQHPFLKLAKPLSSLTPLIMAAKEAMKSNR
# assay_overview: radiometric filter-binding kinase assay, Kinase HotSpot
# condition_details: compound 0.5 µM; ATP 10 µM
The entries below are paired with their reported residual activity.
Response body: numeric value in %, unit text excluded.

{"columns": ["molecular_string", "units_label", "residual activity"],
 "data": [
  ["N/C(=N\\N=C/c1ccc(-c2cccc([N+](=O)[O-])c2)o1)N[N+](=O)[O-]", "%", 103],
  ["Nc1ncnc2c1cnn2-c1ccccc1", "%", 98.1],
  ["O=c1cc(N2CCOCC2)oc2c(-c3ccccc3)cccc12", "%", 103],
  ["CCOc1cc2ncnc(Nc3cccc(Br)c3)c2cc1OCC", "%", 105],
  ["COc1cc2c(N3CCN(C(=O)Nc4ccc(OC(C)C)cc4)CC3)ncnc2cc1OCCCN1CCCCC1", "%", 112],
  ["N#C/C(=C1/Nc2ccccc2S1)c1ccnc(NCCc2cccnc2)n1", "%", 103],
  ["N#Cc1c(NC(=O)c2cccc3ccccc23)sc2c1CCCC2", "%", 103],
  ["FC(F)(F)c1ccc(/C=C/c2nc(COc3ccc(CCCCn4ccnn4)cc3)co2)cc1", "%", 113]
]}

Returns the measured residual activity for the input compound. Input: O=S(=O)(NCCNC/C=C/c1ccc(Br)cc1)c1cccc2cnccc12
78.6

# iterate: COc1cc2ncnc(Nc3ccc(O)c(Br)c3)c2cc1OC
90.6

# iterate: CCc1nc(-c2ccc(OC)cc2)[nH]c1-c1ccncc1
90.7

----------
The entries below are paired with their reported residual activity.
# experimental_system: CAMK2G (human) (UniProt Q13555)
# Sequence (Q13555 whole entry, looked up): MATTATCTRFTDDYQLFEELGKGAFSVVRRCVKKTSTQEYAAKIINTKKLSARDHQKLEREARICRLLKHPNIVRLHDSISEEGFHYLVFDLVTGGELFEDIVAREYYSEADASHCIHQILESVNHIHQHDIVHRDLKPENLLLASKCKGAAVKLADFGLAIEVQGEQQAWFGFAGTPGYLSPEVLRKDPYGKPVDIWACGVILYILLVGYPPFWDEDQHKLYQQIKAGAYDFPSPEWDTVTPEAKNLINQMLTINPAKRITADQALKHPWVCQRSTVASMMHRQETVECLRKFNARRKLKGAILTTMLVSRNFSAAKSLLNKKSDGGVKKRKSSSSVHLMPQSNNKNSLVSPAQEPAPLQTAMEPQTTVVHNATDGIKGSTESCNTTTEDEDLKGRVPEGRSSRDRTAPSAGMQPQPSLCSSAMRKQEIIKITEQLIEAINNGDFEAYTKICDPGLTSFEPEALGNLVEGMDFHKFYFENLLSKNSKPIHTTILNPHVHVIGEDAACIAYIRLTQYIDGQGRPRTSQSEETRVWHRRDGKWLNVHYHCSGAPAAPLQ
# assay_overview: radiometric filter-binding kinase assay, Kinase HotSpot
# condition_details: compound 0.5 µM; ATP 10 µM
Phrase the answer as number then unit, nothing more needed.

Here's what some known entries look like.
{"columns": ["molecular_string", "experimental_system", "residual activity"],
 "data": [
  ["Cn1cc(/C=C2\\C(=O)Nc3ccc(S(N)(=O)=O)cc32)c2ccccc21", "CAMK2G (human) (UniProt Q13555)", "91.9%"],
  ["COc1cc2c(N3CCN(C(=O)Nc4ccc(OC(C)C)cc4)CC3)ncnc2cc1OCCCN1CCCCC1", "CAMK2G (human) (UniProt Q13555)", "101%"],
  ["O=C(O)c1ccc2c3c1cccc3c(=O)n1c3ccccc3nc21", "CAMK2G (human) (UniProt Q13555)", "96.5%"],
  ["N#Cc1c(NC(=O)c2cccc3ccccc23)sc2c1CCCC2", "CAMK2G (human) (UniProt Q13555)", "99.6%"],
  ["Nc1ncnc2c1cnn2-c1ccccc1", "CAMK2G (human) (UniProt Q13555)", "105%"]
]}

Next compound, residual activity to be filled in.
Returns the measured residual activity for the input compound. Input: O=C1NC(=O)c2cc(Nc3ccc(F)cc3)c(Nc3ccc(F)cc3)cc21
101%

----------
# experimental_system: PTK2 (human)
# assay_overview: radiometric filter-binding kinase assay, Kinase HotSpot
# condition_details: compound 0.5 µM; ATP 10 µM
The entries below are paired with their reported residual activity.
Response body: numeric value in %, unit text excluded.

Here's what some known entries look like.
{"columns": ["molecular_string", "test_result"],
 "data": [
  ["N#Cc1c(NC(=O)c2cccc3ccccc23)sc2c1CCCC2", 101],
  ["O=c1cc(N2CCOCC2)oc2c(-c3ccccc3)cccc12", 103],
  ["O=C(c1ccccc1)c1ccc(N2CCOCC2)cc1O", 109],
  ["O=c1[nH]c2ccccc2n1C1CCN(Cc2ccc(-c3nc4cc5[nH]cnc5cc4nc3-c3ccccc3)cc2)CC1", 108]
]}

Returns the measured residual activity for the input compound. Input: N#C/C(=C1/Nc2ccccc2S1)c1ccnc(NCCc2cccnc2)n1
93

# iterate: COc1cc2ncnc(Nc3ccc(O)c(Br)c3)c2cc1OC
99.5

----------
# experimental_system: SRPK3 (human)
# assay_overview: radiometric filter-binding kinase assay, Kinase HotSpot
# condition_details: compound 0.5 µM; ATP 10 µM
The entries below are paired with their reported residual activity.
Response body: numeric value in %, unit text excluded.

Here's what some known entries look like.
{"columns": ["molecular_string", "units_label", "residual activity"],
 "data": [
  ["FC(F)(F)c1ccc(/C=C/c2nc(COc3ccc(CCCCn4ccnn4)cc3)co2)cc1", "%", 104],
  ["COc1cc2c(cc1OC)-c1[nH]nc(Nc3cccc(F)c3)c1C2", "%", 99.7],
  ["CCOc1cc2ncnc(Nc3cccc(Br)c3)c2cc1OCC", "%", 93.5],
  ["COc1cc2c(Nc3ccc(Br)cc3F)ncnc2cc1OCC1CCN(C)CC1", "%", 102]
]}

Item: O=C1NC(=O)c2c1c1c3ccccc3[nH]c1c1[nH]c3cc(Br)ccc3c21 Test system: SRPK3 (human) Read-out: residual activity Value: ?
89.2

# iterate: N#CCCc1ccc2c(c1)-c1[nH]c3ccc([N+](=O)[O-])cc3c1CC(=O)N2
94.6

# iterate: Nc1ncnc2c1cnn2-c1ccccc1
96.4

# iterate: O=C(c1ccccc1)c1ccc(N2CCOCC2)cc1O
103

# iterate: O=c1cc(N2CCOCC2)oc2c(-c3ccccc3)cccc12
95.5

# iterate: O=c1[nH]c2ccccc2n1C1CCN(Cc2ccc(-c3nc4cc5[nH]cnc5cc4nc3-c3ccccc3)cc2)CC1
107

# iterate: N#C/C(=C1/Nc2ccccc2S1)c1ccnc(NCCc2cccnc2)n1
89.5

----------
# experimental_system: RIPK2 (human) (UniProt O43353)
# Sequence (O43353 whole entry, looked up): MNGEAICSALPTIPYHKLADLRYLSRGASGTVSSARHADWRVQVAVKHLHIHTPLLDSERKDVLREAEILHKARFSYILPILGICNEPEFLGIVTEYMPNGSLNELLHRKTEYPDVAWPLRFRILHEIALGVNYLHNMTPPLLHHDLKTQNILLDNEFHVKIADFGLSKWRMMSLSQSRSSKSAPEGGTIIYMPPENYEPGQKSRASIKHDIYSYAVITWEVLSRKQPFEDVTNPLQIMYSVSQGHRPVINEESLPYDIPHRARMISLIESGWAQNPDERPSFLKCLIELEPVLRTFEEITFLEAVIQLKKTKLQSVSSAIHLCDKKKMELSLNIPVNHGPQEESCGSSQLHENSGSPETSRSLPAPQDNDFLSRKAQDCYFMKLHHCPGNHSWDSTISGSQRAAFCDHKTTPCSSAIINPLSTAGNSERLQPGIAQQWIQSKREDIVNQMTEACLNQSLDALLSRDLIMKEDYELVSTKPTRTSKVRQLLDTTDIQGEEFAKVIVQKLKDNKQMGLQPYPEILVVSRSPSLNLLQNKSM
# assay_overview: radiometric filter-binding kinase assay, Kinase HotSpot
# condition_details: compound 0.5 µM; ATP 10 µM
The entries below are paired with their reported residual activity.
Response body: numeric value in %, unit text excluded.

Here's what some known entries look like.
{"columns": ["molecular_string", "experimental_system", "residual activity (%)"],
 "data": [
  ["CCCCc1c(-c2ccc(O)cc2)[nH]c2nccnc12", "RIPK2 (human) (UniProt O43353)", 58.6],
  ["CCOc1cc2ncnc(Nc3cccc(Br)c3)c2cc1OCC", "RIPK2 (human) (UniProt O43353)", 39.8],
  ["O=S(=O)(NCCNC/C=C/c1ccc(Br)cc1)c1cccc2cnccc12", "RIPK2 (human) (UniProt O43353)", 77.8],
  ["Cc1cc(Nc2nc(-c3ccccc3)nc3ccccc23)n[nH]1", "RIPK2 (human) (UniProt O43353)", 70.4],
  ["O=c1cc(N2CCOCC2)oc2c(-c3ccccc3)cccc12", "RIPK2 (human) (UniProt O43353)", 89.9],
  ["N#Cc1c(NC(=O)c2cccc3ccccc23)sc2c1CCCC2", "RIPK2 (human) (UniProt O43353)", 81.3],
  ["O=C1NC(=O)c2cc(Nc3ccc(F)cc3)c(Nc3ccc(F)cc3)cc21", "RIPK2 (human) (UniProt O43353)", 95],
  ["COc1cc2c(N3CCN(C(=O)Nc4ccc(OC(C)C)cc4)CC3)ncnc2cc1OCCCN1CCCCC1", "RIPK2 (human) (UniProt O43353)", 110],
  ["O=C1NC(=O)c2c1c1c3ccccc3[nH]c1c1[nH]c3cc(Br)ccc3c21", "RIPK2 (human) (UniProt O43353)", 99.6],
  ["COc1cc2ncnc(Nc3ccc(O)c(Br)c3)c2cc1OC", "RIPK2 (human) (UniProt O43353)", 36.7]
]}

Returns the measured residual activity for the input compound. Input: N#CCCc1ccc2c(c1)-c1[nH]c3ccc([N+](=O)[O-])cc3c1CC(=O)N2
21.5
